System: MIA-PaCa-2 (Pancreatic Carcinoma);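 further: after 72 h of two-drug dosing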
ASSAY_REMARKS: Bliss excess, mean over the matrix (fraction); higher = more synergy
OBSERVED_PROPERTY: Bliss excess
# output: bare number, no unit

MOLECULE: N#Cc1cnc(Nc2cc(NC[C@H]3CNCCO3)c(C(F)(F)F)cn2)cn1 [SRA737] + CCc1c2c(nc3ccc(O)cc13)-c1cc3c(c(=O)n1C2)COC(=O)[C@]3(O)CC [SN-38] (first compound max 10 µM, 7x7, partner max 0.3 µM)
Bliss excess: 0.0599

MOLECULE: CC1(C)CCC(CN2CCN(c3ccc(C(=O)NS(=O)(=O)c4ccc(NCC5CCOCC5)c([N+](=O)[O-])c4)c(Oc4cnc5[nH]ccc5c4)c3)CC2)=C(c2ccc(Cl)cc2)C1 [Venetoclax] + C[C@@H](Nc1cc(F)cc(F)c1)c1cc(C(=O)N(C)C)cc2c(=O)cc(N3CCOCC3)oc12 [AZD8186] (first compound max 1 µM, 7x7, partner max 3 µM)
Bliss excess: -0.0513

MOLECULE: C=CCn1c(=O)c2cnc(Nc3ccc(N4CCN(C)CC4)cc3)nc2n1-c1cccc(C(C)(C)O)n1 [AZD1775] + CCc1c2c(nc3ccc(O)cc13)-c1cc3c(c(=O)n1C2)COC(=O)[C@]3(O)CC [SN-38] (first compound max 1 µM, partner max 0.3 µM)
Bliss excess: 0.0699

Let us examine a further case.
Lab note: COc1cccc(OCCCN)c1-c1cc(Nc2cnc(C#N)cn2)n[nH]1 [Prexasertib] + C=CCn1c(=O)c2cnc(Nc3ccc(N4CCN(C)CC4)cc3)nc2n1-c1cccc(C(C)(C)O)n1 [AZD1775] (first compound max 1 µM, partner max 1 µM) gave Bliss excess of 0.143
